B1: TPR 5TU (parent)
chain: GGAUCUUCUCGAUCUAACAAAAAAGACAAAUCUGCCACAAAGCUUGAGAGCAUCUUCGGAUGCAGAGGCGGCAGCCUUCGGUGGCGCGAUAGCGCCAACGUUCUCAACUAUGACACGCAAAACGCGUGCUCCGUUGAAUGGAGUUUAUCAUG

Variants of: B1
Assay: polymerase ribozyme fitness, log enrichment relative to wild type (log ratio); higher = more active; in vitro selection for triplet polymerase activity
Fewer inactive variants are shown than the library holds.
READOUT_KIND: polymerase ribozyme fitness (log ratio)
Just the number.

1) C38U A47C C93A C125U; -3.16

Reported polymerase ribozyme fitness (log ratio), variant U6A C93G : ____
-3.92

// query polymerase ribozyme fitness (log ratio) value for entry C51G G94C C149U
-3.9

Give its polymerase ribozyme fitness (log ratio) value. Item: C99A U146A
-1.15

Which polymerase ribozyme fitness (log ratio) is listed for U31C C57A G83U C118U G124U A142C ?
-2.24

I would be grateful if you could share the reported polymerase ribozyme fitness (log ratio) for A22U U82G C93A G124U C125U .
-2.61

Return reported polymerase ribozyme fitness (log ratio); argument: A20U A60C A73G
-2.81
